// TGI lookup, one value per entry
test system: M14 melanoma; test: NCI tumour cell line growth inhibition, 48 h
Where a SMILES comes first, the peptide text is derived from it. [ ]: non-standard residue; d: D form. The star is where a group is joined. Octanoyl = CCCCCCCC(=O)*; Aib = CC(C)(N)C(=O)O; tBu = CC(C)(C)*
Experimental readout: TGI

• CCOP(=O)(OCC)/C(C#N)=C/c1cccn1CC(C)C = > 100 µM
• NC1=N/C(=C2/CCNC(=O)c3[nH]c(Br)cc32)C(=O)N1 = > 100 µM
• COc1cc([N+](=O)[O-])ccc1NC1=CC(=O)CCC1 = > 100 µM
• COc1ccc(/C=C2\CCC(C)(CN(C)C)C2=O)cc1 (stereo not drawn) = > 100 µM
• O=C(O)c1ccc(C(c2c(O)c3ccccc3oc2=O)c2c(O)c3ccccc3oc2=O)cc1 = > 100 µM
• CN(C)CCCc1c[nH]c2ccccc12 = > 100 µM
• C=C1c2nc3ccccc3n2C=C(c2ccccc2)N1c1ccccc1 = > 100 µM
• CCCCCCCC(=O)NC(C)(C)C(=O)NC(COC(C)(C)C)C(=O)NC(CC(C)C)C(=O)NC(C)(C)C(=O)NC(COC(C)(C)C)C(=O)NC(COC(C)(C)C)C(=O)NC(CC(C)C)C(=O)NC(C)(C)C(=O)NC(COC(C)(C)C)C(=O)NC(C(=O)NC(CC(C)C)C(=O)OC)C(C)CC (stereo not drawn) (Octanoyl-[Aib]S(tBu)L[Aib]S(tBu)S(tBu)L[Aib]S(tBu)IL-OMe; configuration not given here) = > 25 µM
• COc1nc2sc3c(c2c(=O)n1CCCSSCCCn1c(OC)nc2sc4c(c2c1=O)CCCC4)CCCC3 = > 100 µM
• COc1ccc(O)c(C=NCCCN=Cc2cc(OC)ccc2O)c1 = > 100 µM
• COc1ccc2[nH]c3c(c2c1)COc1ccccc1C3=O = > 100 µM
• CCCc1nc2c(C)cc(-c3nc4ccccc4n3C)cc2n1Cc1ccc(-c2ccccc2C(=O)O)cc1 = > 100 µM
• CCCCCCCCCCCCCCCCCCOCC(CO[P+](=O)O)OCCCCCCCCCCCCCCCCCC (stereo not drawn) = > 50 µM

----------
system: OVCAR-3 ovarian; assay: NCI tumour cell line growth inhibition, 48 h
Experimental readout: TGI

• CC1=C(C(=O)NCc2ccccc2)C(c2ccccc2[N+](=O)[O-])C(C(=O)NCc2ccccc2)=C(C)N1 = 19.2 µM
• COC(=O)C1(Cc2ccccc2)Cc2ccc3c(c2C1=O)CCC3 (stereo unspecified) = > 100 µM
• CC(=O)Oc1ccccc1C(=O)O = > 100 µM
• O=C1CC2(CCNCC2)C(=O)N1N1CCCC1 = > 100 µM
• CC(=O)N[C@H]1CCCC[C@@H]1OC(C)=O = > 100 µM
• O=c1[nH]nc(Cc2ccc(Cl)cc2)n1/N=C\CC/C=N\n1c(Cc2ccc(Cl)cc2)n[nH]c1=O = > 100 µM

----------
test system: SNB-75 CNS; assay: NCI tumour cell line growth inhibition, 48 h
// TGI lookup, one value per entry
Experimental readout: TGI

• CC1(C)CN=C(Nc2cccc(C(F)(F)F)c2)S1 = > 100 µM
• N.N.NCCCCN.O=C([O-])C1(C(=O)[O-])CCC1.O=C([O-])C1(C(=O)[O-])CCC1.[Pt+4].[Pt+4] = > 100 µM
• NCCNC(=S)S = > 100 µM

----------
test system: SK-MEL-2 melanoma; assay: NCI tumour cell line growth inhibition, 48 h
Experimental readout: TGI

* CN(C)c1ccc(/C=C(\NC(=O)c2ccccc2)C(=O)NC(CCC(=O)O)C(=O)O)cc1 (stereo unspecified) | > 100 µM
* CN(C)c1nc(-c2ccccc2)c(C(=O)c2c[nH]c3ccccc23)s1 | > 100 µM
* COc1ccc(C(c2c(O)c3ccccc3n(C)c2=O)c2c(O)c3ccccc3n(C)c2=O)cc1 | > 100 µM
* c1ccc(CN(Cn2cccn2)Cn2cccn2)nc1 | > 100 µM
* CCC(C)C(NC(=O)C1CCCN1C(=O)C(NC(=O)C(C)N)C(C)C)C(N)=O (stereo unspecified) | > 100 µM
* S=C(S)N1CCN(c2ccc(Cl)c(Cl)c2)CC1 | 34.6 µM
* CC(=O)O[C@H]1C(=O)[C@@]2(C)C(C(OC(=O)c3ccccc3)[C@]3(O)CC(OC(=O)C(O)C(NC(=O)c4ccc(C)cc4)c4ccccc4)C(C)=C1C3(C)C)[C@]1(OC(C)=O)CO[C@@H]1C[C@@H]2O (stereo partly specified) | 0.0141 µM
* Cc1ccccc1CN1CC=c2ccccc2=N1 | > 100 µM
* COC(=O)C1(Cc2ccccc2)Cc2ccc3c(c2C1=O)CCC3 (stereo unspecified) | 41.5 µM
* N#CCCN(c1ccc(-c2nnc(NC(=O)CNNC(=O)CC(=O)Nc3ccccc3)s2)cc1)S(=O)(=O)c1ccccc1 | > 100 µM
* C=C1c2nc3ccccc3n2C=C(c2ccccc2)N1c1ccccc1 | > 100 µM

----------
system: IGROV1 ovarian; assay: NCI tumour cell line growth inhibition, 48 h
// TGI lookup, one value per entry
Experimental readout: TGI

• Cc1ccc(C)c(-c2csc(Nc3ccc(C)c(C)c3)n2)c1 = > 100 µM
• O=c1[nH]nc(Cc2ccc(Cl)cc2)n1/N=C\CC/C=N\n1c(Cc2ccc(Cl)cc2)n[nH]c1=O = 41.3 µM
• O=C(NCCO)Nc1c(C(F)(F)F)cc(-c2ccccc2)[nH]c1=O = > 100 µM
• C=C(C)[C@@H]1CC[C@]2(C)[C@H](CC[C@@H]3[C@H]4[C@H]5OC[C@@]4(CCC5(C)C)CC[C@]32C)[C@@]1(C)CCCN = 3.36 µM
• S=C(S)N1CCN(c2ccc(Cl)c(Cl)c2)CC1 = 84.6 µM
• NC1=N/C(=C2/CCNC(=O)c3[nH]c(Br)cc32)C(=O)N1 = > 100 µM
• CCOC(=O)c1cn(Cc2ccccc2)c(=O)n1Cc1ccccc1 = > 100 µM
• NCCCN1CCN(CC(=O)O)CCN(CCCN)CCN(CC(=O)O)CC1 = > 100 µM

Attribution: PubChem BioAssay (NCI)
